The molecules listed here are annotated with their Ki.
# tested_system: soluble human BACE1 catalytic domain (Homo sapiens (Human))
# Sequence (P56817 75-416): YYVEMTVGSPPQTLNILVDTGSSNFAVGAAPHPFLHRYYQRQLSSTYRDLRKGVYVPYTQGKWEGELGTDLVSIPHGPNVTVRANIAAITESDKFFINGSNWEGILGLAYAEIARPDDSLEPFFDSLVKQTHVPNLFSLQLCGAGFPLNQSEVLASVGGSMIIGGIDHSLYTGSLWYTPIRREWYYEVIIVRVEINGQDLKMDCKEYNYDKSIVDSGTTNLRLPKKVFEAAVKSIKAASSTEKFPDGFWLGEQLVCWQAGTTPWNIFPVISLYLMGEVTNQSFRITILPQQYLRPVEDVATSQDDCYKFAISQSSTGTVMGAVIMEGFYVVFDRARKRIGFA
# measurement_protocol: BACE1 HTRF FRET Assay
# condition_label: read-out: BACE1 Ki; Ki calculated from IC50 using the Cheng-Prusoff equation
# value in nM; strip the unit string

molecule	tested_system	readout_units	Ki
CC(F)(F)C(=O)Nc1ccc(F)c([C@]2(C)CS(=O)(=O)C(C)(C)C(=N)N2)c1 [Example 9ai]	soluble human BACE1 catalytic domain (Homo sapiens (Human))	nM	82
CC1(C)C(=N)N[C@](C)(c2sc(-c3cc(F)cc(-c4nnco4)c3)cc2Cl)CS1(=O)=O [Example 27ab]	soluble human BACE1 catalytic domain (Homo sapiens (Human))	nM	15.4
C[C@@]1(c2cccc(F)c2)C(=N)N[C@](C)(c2cc(NC(=O)c3ccc(C(F)(F)F)cn3)ccc2F)CS1(=O)=O [Example 9de-b]	soluble human BACE1 catalytic domain (Homo sapiens (Human))	nM	175

We next turn to a different molecule, shown below.
Sure, the documented Ki for CC1(C)C(=N)N[C@](C)(c2sc(-c3cccc(-c4ccno4)c3)cc2Cl)CS1(=O)=O [Example 27d] is 64.3

---

# tested_system: purified human autoBACE-2 (Homo sapiens (Human))
# measurement_protocol: BACE-2 Assay (BACE-HTRF assay)
# Format: biochemical
# condition_label: Ki calculated from IC50 using the Cheng-Prusoff equation; read-out: BACE2 Ki
pKi: −log10 of the molar value.
property_name: pKi

Completed entries (count: 8):
compound	pKi
COc1cnc(C(=O)Nc2ccc(F)c([C@]3(C)CS(=O)(=O)[C@](C)(CC4CC4)C(=N)N3)c2)cn1 [Example 9dk-b]	7.00 to 7.96
CC1(C)C(=N)N[C@](C)(c2nc(NC(=O)c3ccc(Cl)cn3)ccc2F)CS1(=O)=O [Example 9cc]	≥ 8.00
CC1(C)C(=N)N[C@](C)(c2sc(-c3cccc(C#N)c3)cc2F)CS1(=O)=O [Example 27aq]	≥ 7.70
COc1ccc(C(=O)Nc2ccc(F)c([C@]3(C)CS(=O)(=O)[C@](C)(CC(F)(F)F)C(=N)N3)c2)nc1 [Example 9dq-b]	7.00 to 7.96
C[C@@]1(C2CCC2)C(=N)N[C@](C)(c2cc(NC(=O)c3ccc(Cl)cn3)ccc2F)CS1(=O)=O [Example 9dw-b]	7.00 to 7.96
CC1(C)C(=N)N[C@](C)(c2sc(-c3cccc(-c4ncon4)c3)cc2F)CS1(=O)=O [Example 27ao]	≥ 7.70
COc1cccc2cc(-c3cc(Cl)c([C@]4(C)CS(=O)(=O)[C@@](C)(CC5CCOCC5)C(=N)N4)s3)[nH]c12 [Example 27bx]	≥ 8.00
CC(C)[C@]1(C)C(=N)N[C@](C)(c2cc(NC(=O)c3ccc(F)cn3)ccc2F)CS1(=O)=O [Example 9ea-b]	7.00 to 7.96

# value of pKi, purified human autoBACE-2 (Homo sapiens (Human)), item C[C@@]1(C2CCC2)C(=N)N[C@](C)(c2cc(NC(=O)c3ccc(F)cn3)ccc2F)CS1(=O)=O [Example 9dv-b] = 7.00 to 7.96

---

# tested_system: soluble human BACE1 catalytic domain (Homo sapiens (Human))
# measurement_protocol: BACE1 HTRF FRET Assay
# condition_label: read-out: BACE1 Ki; Ki calculated from IC50 using the Cheng-Prusoff equation
property_name: pKi
pKi is defined as minus the log10 of a concentration measured in mol/L.

Completed entries (count: 7):
molecule	reported
C[C@@]1(c2ccccn2)C(=N)N[C@](C)(c2cc(NC(=O)c3ccc(Cl)cn3)ccc2F)CS1(=O)=O	7.14
CC1(C)C(=N)N[C@](C)(c2cc(NC(=O)c3ccc(F)cn3)ccc2F)CS1(=O)=O	8.92
C[C@@]1(c2cc(NC(=O)c3ccc(F)cn3)ccc2F)CS(=O)(=O)[C@@](C)(c2ccccc2F)C(=N)N1	7.67
COc1ccc(C(=O)Nc2ccc(F)c([C@]3(C)CS(=O)(=O)C(C)(C)C(=N)N3)n2)nc1	7.26
Cc1cccc(CNC(=O)c2cc(Cl)c([C@]3(C)CS(=O)(=O)C(C)(C)C(=N)N3)s2)n1 [Example 22c]	5.10
COc1cnc(C(=O)Nc2ccc(F)c([C@]3(C)CS(=O)(=O)[C@](C)(C(C)C)C(=N)N3)c2)cn1	6.28
CC1(C)C(=N)N[C@](C)(c2cc(NC(=O)c3cnc(C(F)F)cn3)ccc2F)CS1(=O)=O	8.44

Sure, the documented pKi for CC[C@@]1(C)C(=N)N[C@](C)(c2cc(NC(=O)c3ccc(F)cn3)ccc2F)CS1(=O)=O is 8.23

---

The compounds listed here are annotated with their Ki.
# tested_system: purified human autoBACE-2 (Homo sapiens (Human), UniProt Q9Y5Z0)
# Sequence (Q9Y5Z0 63-473): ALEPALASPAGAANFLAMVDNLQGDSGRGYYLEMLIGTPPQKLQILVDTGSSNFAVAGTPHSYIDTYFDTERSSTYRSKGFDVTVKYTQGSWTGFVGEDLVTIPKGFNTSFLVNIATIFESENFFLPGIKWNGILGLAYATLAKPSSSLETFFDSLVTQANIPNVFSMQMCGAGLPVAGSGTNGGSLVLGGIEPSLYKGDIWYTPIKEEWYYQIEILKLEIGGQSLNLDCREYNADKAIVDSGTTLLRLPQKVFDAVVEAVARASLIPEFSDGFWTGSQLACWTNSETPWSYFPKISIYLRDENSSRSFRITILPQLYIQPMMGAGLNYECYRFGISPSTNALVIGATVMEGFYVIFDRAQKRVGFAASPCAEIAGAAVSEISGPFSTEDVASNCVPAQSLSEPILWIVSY
# measurement_protocol: BACE-2 Assay (BACE-HTRF assay)
# Type: biochemical
# condition_label: Ki calculated from IC50 using the Cheng-Prusoff equation; read-out: BACE2 Ki

compound	reported
COc1cnc(C(=O)Nc2ccc(F)c([C@]3(C)CS(=O)(=O)[C@](C)(c4ccccn4)C(=N)N3)c2)cn1	101 to 700 nM

Sure, the documented Ki for CC[C@]1(C)C(=N)N[C@](C)(c2cc(NC(=O)c3ccc(OC)cn3)ccc2F)CS1(=O)=O is 11 to 100 nM

Sure, the documented Ki for C[C@@]1(c2cccc(F)c2)C(=N)N[C@](C)(c2cc(NC(=O)c3ccc(F)cn3)ccc2F)CS1(=O)=O is 11 to 100 nM

Sure, the documented Ki for C[C@@]1(c2sc(-c3cccc(C#N)c3)cc2F)CS(=O)(=O)[C@@](C)(c2cccc(F)c2)C(=N)N1 [Example 27br-a] is 10 nM

---

# tested_system: purified human autoBACE-2 (Homo sapiens (Human), UniProt Q9Y5Z0)
# measurement_protocol: BACE-2 Assay (BACE-HTRF assay)
# Assay type: biochemical
# condition_label: Ki calculated from IC50 using the Cheng-Prusoff equation; read-out: BACE2 Ki
property_name: Ki

compound	tested_system	Ki
CC1(C)C(=N)N[C@](C)(c2sc(-c3cncc(C#N)c3)cc2Cl)CS1(=O)=O	purified human autoBACE-2 (Homo sapiens (Human), UniProt Q9Y5Z0)	< 200 nM
COc1cnc(C(=O)Nc2ccc(F)c([C@]3(C)CS(=O)(=O)[C@@](C)(c4ccccn4)C(=N)N3)c2)cn1	purified human autoBACE-2 (Homo sapiens (Human), UniProt Q9Y5Z0)	11 to 100 nM

Sure, the documented Ki for CC1(C)C(=N)N[C@](C)(c2sc(-c3cccc(-n4nccn4)c3)cc2Cl)CS1(=O)=O [Example 27u] is ≤ 10 nM

---

# tested_system: purified human autoBACE-2 (Homo sapiens (Human), UniProt Q9Y5Z0)
# measurement_protocol: BACE-2 Assay (BACE-HTRF assay)
# Format: biochemical
# condition_label: Ki calculated from IC50 using the Cheng-Prusoff equation; read-out: BACE2 Ki
property_name: Ki

molecule	tested_system	Ki
CC1(C)C(=N)N[C@](C)(c2cc(-c3cccc(C#N)c3)ccc2F)CS1(=O)=O	purified human autoBACE-2 (Homo sapiens (Human), UniProt Q9Y5Z0)	< 200 nM
COc1cnc(C(=O)Nc2ccc(F)c([C@]3(C)CS(=O)(=O)[C@](C)(CC(F)(F)F)C(=N)N3)c2)cn1	purified human autoBACE-2 (Homo sapiens (Human), UniProt Q9Y5Z0)	101 to 700 nM
CC1(C)C(=N)N[C@](C)(c2sc(-c3cc(Cl)cc(C#N)c3)cc2Cl)CS1(=O)=O [Example 27s]	purified human autoBACE-2 (Homo sapiens (Human), UniProt Q9Y5Z0)	≤ 10 nM
C[C@@]1(c2ccccn2)C(=N)N[C@](C)(c2cc(NC(=O)c3ccc(C(F)(F)F)cn3)ccc2F)CS1(=O)=O	purified human autoBACE-2 (Homo sapiens (Human), UniProt Q9Y5Z0)	101 to 700 nM
C[C@@]1(c2ccccn2)C(=N)N[C@](C)(c2cc(NC(=O)c3ccc(F)cn3)ccc2F)CS1(=O)=O	purified human autoBACE-2 (Homo sapiens (Human), UniProt Q9Y5Z0)	11 to 100 nM

# value of Ki, purified human autoBACE-2 (Homo sapiens (Human), UniProt Q9Y5Z0), item CC1(C)C(=N)N[C@](C)(c2sc(-c3nnc(-c4ccc(Cl)cc4)o3)cc2F)CS1(=O)=O [Example 27bf] = ≤ 20 nM

# value of Ki, purified human autoBACE-2 (Homo sapiens (Human), UniProt Q9Y5Z0), item COc1cnc(C(=O)Nc2ccc(F)c([C@]3(C)CS(=O)(=O)[C@](C)(C4CCC4)C(=N)N3)c2)cn1 = 101 to 700 nM

# value of Ki, purified human autoBACE-2 (Homo sapiens (Human), UniProt Q9Y5Z0), item COc1cccc2cc(-c3cc(F)c([C@]4(C)CS(=O)(=O)C(C)(C)C(=N)N4)s3)[nH]c12 [Example 27an] = ≤ 20 nM

# value of Ki, purified human autoBACE-2 (Homo sapiens (Human), UniProt Q9Y5Z0), item C[C@@]1(c2ccccn2)C(=N)N[C@](C)(c2cc(NC(=O)c3ccc(Cl)cn3)ccc2F)CS1(=O)=O = 11 to 100 nM
